- experiment description: MTT cytotoxicity assay in MCF7 cells
- Assay type: cell-based
- experimental conditions: human, MCF7 breast cancer cells, 1 μM to 60 μM
assay metric: EC50 at 48 h (µM)
Entry rule: numbers only, all in µM.

# input Fill blank: measured EC50 at 48 h of the compound "CC(C)C[C@@H]1NCCN([C@@H](CC(C)C)C(=O)N2CCN([C@@H](CCC(N)=O)C(N)=O)C(=O)[C@@H]2C)C1=O" is ____.
# output 30

# input Fill blank: measured EC50 at 48 h of the compound "CC(C)C[C@@H]1NCCN([C@@H](CC(C)C)C(=O)N2CCN([C@@H](C)C(N)=O)C(=O)[C@@H]2C)C1=O" is ____.
# output 30

Values were extracted from patent US9669038B1.
